B1: RSAD1 (parent)
chain: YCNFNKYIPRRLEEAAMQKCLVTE

Variants of: B1
assay.text: protein stability index of a GFP-peptide fusion (GPS, HEK-293T) (PSI 1-6); higher = more stable;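 further: lentivirally expressed fusions sorted by FACS into six bins by GFP to DsRed ratio, PSI derived from sequencing read proportions per bin multiplied by bin number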
test.parameters: c terminus: a fixed tail appended
measurement.name: protein stability index
Returns: the value as a bare number; no unit string appended.

These recorded examples may help you get a feel for the data.
A15C    1.83
E24D    2.4
P9R    1.37
R11Q    1.67
L12C    1.96

Query :: Endpoint output: protein stability index of K19V . Value?
Result :: 1.48

Query :: And for E14P ?
Result :: 2.92

Query :: Same lookup for E14I , please.
Result :: 2.32

Query :: Consider next the variant T23V in the same way.
Result :: 3.13

Query :: V22E , same question.
Result :: 2.41

Query :: Do the same for A16K please
Result :: 3.53
